Below, each entry is listed with its recorded log10 of EC50.
Target: T1, human tissue factor (TF) on MDA-MB-231, NCI-H358 and HCT116 cells (human, UniProt P13726 33-295)
T1 construct: whole, on cells; also called TF antigen; CD142
Experiment: flow cytometry on H358 cells
The base-10 logarithm of EC50, taken with EC50 in nM, is what appears here.

Recorded log10 of EC50, per entry:
# binder, log10 of EC50
records = [
    ("hu10H10-53 (antibody, V domains shown, H11+L6; Full-length IgG) VH: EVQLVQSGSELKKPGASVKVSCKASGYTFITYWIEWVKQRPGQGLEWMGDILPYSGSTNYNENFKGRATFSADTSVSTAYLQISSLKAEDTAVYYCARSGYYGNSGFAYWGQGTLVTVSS VL: DIQMTQSPSSLSASVGDRVTITCKSSQSLLSSSNQKNYLTWYQQKPGKAPKLLIYWASTREEGVPSRFSGSGSGTDFTLTISSLQPEDFATYYCQNDYTYPLTFGQGTKLEIK", -0.39),
    ("hu10H10-34 (antibody, V domains shown, H8+L3; Full-length IgG) VH: EVQLVQSGSELKKPGASVKVSCKASGRTFITYWIEWVRQRPGQGLEWMGDILPGSGSTNYNENFKGRATFSADTSVSTAYLQISSLKAEDTAVYYCARSGYYGNSGFAYWGQGTLVTVSS VL: DIQMTQSPSSLSASVGDRVTITCKSSQSLLSSGNQKNYLTWYQQKPGKAPKLLIYWASTREEGVPSRFSGSGSGTDFTLTISSLQPEDFATYYCQNDYTYPLTFGQGTKLEIK", 0.00),
    ("hu67-14 (antibody, human IgG1, kappa, V domains shown) VH: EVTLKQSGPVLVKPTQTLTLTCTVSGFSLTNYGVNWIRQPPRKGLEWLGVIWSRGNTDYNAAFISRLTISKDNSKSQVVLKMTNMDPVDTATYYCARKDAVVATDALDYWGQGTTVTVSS VL: DIQMTQSHKFLSASVGDRVTITCKASQDVSTAVAWYQQKPGKSPKLLIYSTSYRYTGVPSRFSGSGSGTDFTFTISSLQPEDIATYYCQQHYSTPYTFGGGTKVEIKR", 2.03),
    ("hu67Y116 (antibody, human IgG1, kappa, V domains shown) VH: EVQLQESGPGLVKPSQTLSLTCTVSGFSLTNYGVNWIRQSPGKGLEWIGVIWSRGNTDYNAAFKSRVTISKDTSKNQVSLKLSSVTAADTAVYYCARKDAIVATDALDYWGQGTTVTVSS VL: DIQMTQSPSSLSASVGDRVTITCKASQDVQTAVAWYQQKPGKAPKLLIYSTHYRYTGVPSRFSGSGSGTDFTFTISSLQPEDIATYYCLQSYTLPFSFGGGTKVEIKR", 0.73),
]

Now consider a different binder.
stdin: Returns the measured log10 of EC50 for the input binder. Input: hu10H10-33 (antibody, V domains shown, H7+L3; Full-length IgG) VH: EVQLVQSGSELKKPGASVKVSCKASGYTFITYWIEWVKQRPGQGLEWMGDILPGSGSTNYNENFKGRATFSADTSVSTAYLQISSLKAEDTAVYYCARSGYYGNSGFAYWGQGTLVTVSS VL: DIQMTQSPSSLSASVGDRVTITCKSSQSLLSSGNQKNYLTWYQQKPGKAPKLLIYWASTREEGVPSRFSGSGSGTDFTLTISSLQPEDFATYYCQNDYTYPLTFGQGTKLEIK
stdout: -0.02
